- measured.target: γ2δ3 TCR-hFc mutant S2 (D26N, K85L in the Vδ3 chain) (human) (UniProt B7Z8K6)
- test.name: Luminex beads; TCR-hFc captured by goat anti-human Fc; antibody titrated
readout.type: EC50 (nM)
Numeric answer only, unit nM assumed.

Lookup result for δ3-31 (antibody, V domains shown) VH: DVQLQESGPDLVKPSQSLSLTCTVTGYSITSGYGWHWIRQFPGNKLEWMGYISFSGSNKYNPSLKSRISITRDTSKNQFFLQLNSVTTEDTATYYCANLDYWGQGTTLTVSS VL: DIQMTQRTSSLSASLGDRVTISCSASQDITNYLHWFQQKPDGTVKLLIYYTSTLHSGVPSRFSGSGSGTDYSLTISNLEPEDIATYYCQQYSKLPYTFGGGTKLEITR ; measured EC50: 0.05

Lookup result for δ3-42 (antibody, V domains shown) VH: DVQLQESGPDLVKPSQSLSLTCTVTGYSITSGYNWHWIRQFPGNKLEWMGYIHYSGNTDYNPSLRSRISITRDTSKNQFFLHLNSVPTEDTATYYCARSGITTDWYFDVWGAGTTVTVSS VL: QIVLSQSPAILSASPGEKVTMTCRASSSVNYMHWYQQKPGSSPKPWIYATSNLASGVPARFSGSGSGTSYSLTISKVEAEDAATYYCQQWSSHQPTFGAGTKLELK ; measured EC50: 0.17

Lookup result for δ3-58 (antibody, V domains shown) VH: EVKLVESGGGLVQPGGSLKLSCAASGFTFSSYAMSWVRQTPEKRLEWVAYIRDGGGGTYYPDTVEGRFTISRDNAKNTLYLQMSSLKSEDTAMYYCARHPPMNDWFLYWGQGTLVTVSA VL: DIQMTQSPASLSVSVGETVTITCRASENIYSHLAWYQQKQGKSPQLLVYAATNLADGVPSRFSGSGSGTQYSLKINSLQSEDFGSYYCQHFWGTPYTFGGGTKLEIKR ; measured EC50: 0.03

Lookup result for δ3-08 (antibody, V domains shown) VH: EEKLEESGGGLVQPGGSMKLSCVASGFIFSIYWMNWVRQSPEKGLEWVGQIRLKSDNYATHYAESVKGRFTISRDDSKSSVYLQMNNLRAEDTGIYYCMYYGSSYERFAYWGQGTLVTVSA VL: DIQMIQSPASLSVSVGETVTITCRASENIYSNLAWYQQKQGKSPQLLVYVATKLADGVPSRFSGSGSGTQYSLKINSLQSEDFGSYYCQHFWGTPPWTFGGGTKLEIK ; measured EC50: 0.07
